- assayed-system: Human rhinovirus A protease (Human rhinovirus sp.)
- Sequence (Q4U254 whole entry): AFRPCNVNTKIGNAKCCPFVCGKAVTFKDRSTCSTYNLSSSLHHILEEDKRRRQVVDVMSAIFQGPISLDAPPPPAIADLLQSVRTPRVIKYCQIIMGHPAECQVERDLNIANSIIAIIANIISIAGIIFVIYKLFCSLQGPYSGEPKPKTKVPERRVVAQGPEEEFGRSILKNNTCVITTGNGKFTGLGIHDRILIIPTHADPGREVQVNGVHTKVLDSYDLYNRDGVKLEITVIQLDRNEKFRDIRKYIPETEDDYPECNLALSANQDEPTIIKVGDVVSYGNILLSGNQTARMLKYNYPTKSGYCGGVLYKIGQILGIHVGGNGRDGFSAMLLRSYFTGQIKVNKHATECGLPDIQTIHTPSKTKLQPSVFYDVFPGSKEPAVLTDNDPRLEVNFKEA
- test-description: Binding affinity was measured against HRV-2 3C protease
Non-standard residues stand in square brackets, D forms with d. Residues, ends and D or L forms follow the SMILES beside them. *: point of attachment. Cbz = O=C(OCc1ccccc1)*; Dap = NC[C@H](N)C(=O)O
assay-endpoint: pKi
// pKi is dimensionless: -log10 of concentration (M)

Specify pKi for CC(=O)NC[C@@H](C=O)NC(=O)[C@H](Cc1ccccc1)NC(=O)[C@H](CC(C)C)NC(=O)OCc1ccccc1 (Cbz-Leu-Phe-[Dap](Ac)-aldehyde) and stop.
6.80

---

- assayed-system: UniProt Q4U254
- test-description: Binding affinity was measured against HRV-89 3C protease
Non-standard residues stand in square brackets, D forms with d. Residues, ends and D or L forms follow the SMILES beside them. *: point of attachment. Cbz = O=C(OCc1ccccc1)*; Dap = NC[C@H](N)C(=O)O
assay-endpoint: pKi
// pKi is dimensionless: -log10 of concentration (M)

Specify pKi for CC(=O)NC[C@@H](C=O)NC(=O)[C@H](Cc1ccccc1)NC(=O)[C@H](CC(C)C)NC(=O)OCc1ccccc1 (Cbz-Leu-Phe-[Dap](Ac)-aldehyde) and stop.
7.44

---

- assayed-system: UniProt:Q4U254
- test-description: Binding affinity against HRV-14 3C protease.
Starred links: 1 amine or outer side, 2 acyl side, 3 side chain; linkers in the order of their positions; H or OH if unused. Non-standard residues stand in square brackets, D forms with d. Residues, ends and D or L forms follow the SMILES beside them. Groups on a side chain read outwards from the residue. *: point of attachment. Cbz = O=C(OCc1ccccc1)*; Dap = NC[C@H](N)C(=O)O; CO = O=C([*:1])[*:2]; Bz = O=C(c1ccccc1)*
assay-endpoint: pKi
// pKi is dimensionless: -log10 of concentration (M)

CC(=O)NC[C@@H](C=O)NC(=O)[C@H](Cc1ccccc1)NC(=O)[C@H](CC(C)C)NC(=O)OCc1ccccc1 (Cbz-Leu-Phe-[Dap](Ac)-aldehyde)    8.22
CC(C)C[C@H](NC(=O)OCc1ccccc1)C(=O)N[C@@H](Cc1ccccc1)C(=O)N[C@H](C=O)CCC(=O)N(C)C (Cbz-Leu-Phe-Glu(NMe2)-aldehyde)    8.30
CC(C)C[C@H](NC(=O)OCc1ccccc1)C(=O)N[C@@H](Cc1ccccc1)C(=O)N[C@H](C=O)CNC(=O)c1ccccc1 (Cbz-Leu-Phe-[Dap](Bz)-aldehyde)    7.92
CC(C)C[C@H](NC(=O)OCc1ccccc1)C(=O)N[C@@H](Cc1ccccc1)C(=O)N[C@H](C=O)CNC(=O)N(C)C (Cbz-Leu-Phe-[Dap]([CO-NMe2])-aldehyde)    8.00

Now for the compound whose pKi we want.
Specify pKi for CC(C)C[C@H](NC(=O)OCc1ccccc1)C(=O)N[C@@H](Cc1ccccc1)C(=O)N[C@H](C=O)CCC(N)=O (Cbz-Leu-Phe-Gln-aldehyde) and stop.
5.44

---

- test-description: Toxic concentration was measured on HRV-89 infected H1- HeLa cells by protection assay.
- Assay type: ADME, cell-based
- test-conditions: human, H1-HeLa cells infected with HRV-89; read-out: TC50 (the source's name)
Non-standard residues stand in square brackets, D forms with d. Residues, ends and D or L forms follow the SMILES beside them. *: point of attachment. Cbz = O=C(OCc1ccccc1)*; Dap = NC[C@H](N)C(=O)O
assay-endpoint: CC50

Specify CC50 for CC(=O)NC[C@@H](C=O)NC(=O)[C@H](Cc1ccccc1)NC(=O)[C@H](CC(C)C)NC(=O)OCc1ccccc1 (Cbz-Leu-Phe-[Dap](Ac)-aldehyde) and stop.
> 100 µM
